From: patent US20250129135A1

- measurement target: human GCG receptor (human, UniProt P47871 26-477)
- Sequence (P47871 26-477): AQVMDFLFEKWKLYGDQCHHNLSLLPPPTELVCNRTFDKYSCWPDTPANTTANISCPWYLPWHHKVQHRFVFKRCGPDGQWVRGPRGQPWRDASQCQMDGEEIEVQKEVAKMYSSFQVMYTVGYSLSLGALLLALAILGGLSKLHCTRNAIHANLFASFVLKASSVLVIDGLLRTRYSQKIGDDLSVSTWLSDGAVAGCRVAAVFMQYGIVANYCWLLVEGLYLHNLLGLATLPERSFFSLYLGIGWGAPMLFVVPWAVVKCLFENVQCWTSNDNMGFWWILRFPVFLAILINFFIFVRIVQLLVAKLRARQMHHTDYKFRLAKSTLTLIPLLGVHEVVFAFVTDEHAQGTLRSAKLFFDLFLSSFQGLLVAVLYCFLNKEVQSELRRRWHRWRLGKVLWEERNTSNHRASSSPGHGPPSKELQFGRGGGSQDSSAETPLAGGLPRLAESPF
- assay procedure: cell-based or functional assay
outcome measure: cAMP EC50, HEK-293 cells stably overexpressing human GCG R (nM)
Numbers only, in nM.

Known cAMP EC50, HEK-293 cells stably overexpressing human GCG R results, listed for orientation:
- YXQGTXTSDYSIXLDKKAQXAFIEFLLEGGPSSGQPPPS (Aib at 2; αMeF(2F) at 6; αMeL at 13; Lys 17 side chain AEEAc-AEEAc-γGlu-CO(CH2)18COOH; Aib at 20; C-terminal amide (NH2)) [Compound 22]: 0.017
- YXQGTXTSDYSIFLDKKAQXAFIEYLLEXHPSSGAPPXS (Aib at 2; αMeF(2F) at 6; Lys 17 side chain AEEAc-AEEAc-γGlu-CO(CH2)18COOH; Aib at 20; Aib at 29; Ac3c at 38; C-terminal amide (NH2)) [Compound 32]: 0.017
- YXQGTXTSDYSIXLDKKAQXAFIEYLLETHPSSGAPPXS (Aib at 2; αMeF at 6; αMeL at 13; Lys 17 side chain AEEAc-AEEAc-γGlu-CO(CH2)18COOH; Aib at 20; Ac3c at 38; C-terminal amide (NH2)) [Compound 2]: 0.232

Note: attention shifts to another entry.
**Query** For YXQGTXTSDYSILLDKKAQXAFIEFLLESHPSSXHPPXS (Aib at 2; αMeF at 6; Lys 17 side chain AEEAc-AEEAc-γGlu-CO(CH2)18COOH; Aib at 20; Aib at 34; Ac3c at 38; C-terminal amide (NH2)) [Compound 42] , what is its reported cAMP EC50, HEK-293 cells stably overexpressing human GCG R?
**Result** 0.495
